Test system: 616215-338-R-J1-PDC tumor spheroids, viability
assay: Anticancer human tumor 616215-338-R-J1-PDC patient-derived colon adenocarcinoma cell line growth inhibition [GQUAD]
conditions: second compound 0.1 µM; first compound 10 µM; stronger effect = lower value; spheroids with HUVEC and MSC
Let's look at some compounds and their measured viability, T/C.
Reply numerically in %, unit not repeated.

Worked cases, viability, T/C given:
INSERT INTO measurements (compound, units_symbol, number) VALUES
  ('CCCS(=O)(=O)Nc1ccc(F)c(C(=O)c2c[nH]c3ncc(-c4ccc(Cl)cc4)cc23)c1F + CN(C)c1ccc(Nc2c3ccc(NC(=O)CCN4CCCC4)cc3nc3cc(NC(=O)CCN4CCCC4)ccc23)cc1', '%', 3.81),
  ('O=c1[nH]cc(F)c(=O)[nH]1 + Cc1[nH]c2ccc(F)cc2c1-c1nc2c3cccnc3c3ncccc3c2[nH]1', '%', 35.1),
  ('Cc1cccc(N(C)C(=O)C2C(O)CCN2c2nc(C)cc(C(F)(F)F)c2C#N)c1 (configuration not stated) + Cc1cnc(CNC(=O)c2c(=O)c3ccc(N4CCCN(C)CC4)nc3n3c2sc2ccccc23)cn1', '%', 49),
  ('CC(C)(O)C1CCC(Nc2ccc3ncc(-c4cccc(C(F)(F)F)c4)n3n2)CC1 (configuration not stated) + Cc1cnc(CNC(=O)c2c(=O)c3ccc(N4CCCN(C)CC4)nc3n3c2sc2ccccc23)cn1', '%', 1.36),
  ('O=c1[nH]cc(F)c(=O)[nH]1 + CN(C)c1ccc(Nc2c3ccc(NC(=O)CCN4CCCC4)cc3nc3cc(NC(=O)CCN4CCCC4)ccc23)cc1', '%', 33.9);

Incoming: State the recorded viability, T/C for this entry: O=c1[nH]cc(F)c(=O)[nH]1 + Cc1cnc(CNC(=O)c2c(=O)c3ccc(N4CCCN(C)CC4)nc3n3c2sc2ccccc23)cn1
Outgoing: 31.5

Incoming: Which viability, T/C is reported for this compound? COc1cc(C2c3cc4c(cc3C(OC3OC5COC(C)OC5C(O)C3O)C3COC(=O)C23)OCO4)cc(OC)c1O (configuration not stated) + Cc1cnc(CNC(=O)c2c(=O)c3ccc(N4CCCN(C)CC4)nc3n3c2sc2ccccc23)cn1
Outgoing: 30.6

Incoming: Any idea what its viability, T/C is? The compound is COc1ccc([C@@H](O)c2cc(-c3ncnc4cc(N5CCOCC5)ccc34)c(F)cc2Cl)nn1 + Cc1cnc(CNC(=O)c2c(=O)c3ccc(N4CCCN(C)CC4)nc3n3c2sc2ccccc23)cn1
Outgoing: 24.6

Incoming: Which viability, T/C value belongs to Cc1cccc(N(C)C(=O)C2C(O)CCN2c2nc(C)cc(C(F)(F)F)c2C#N)c1 (configuration not stated) + CN(C)c1ccc(Nc2c3ccc(NC(=O)CCN4CCCC4)cc3nc3cc(NC(=O)CCN4CCCC4)ccc23)cc1 ?
Outgoing: 96.2

Incoming: Data request, read-out viability, T/C, for Cc1cccc(N(C)C(=O)C2C(O)CCN2c2nc(C)cc(C(F)(F)F)c2C#N)c1 (configuration not stated) + Cc1[nH]c2ccc(F)cc2c1-c1nc2c3cccnc3c3ncccc3c2[nH]1
Outgoing: 95.5

Incoming: So what does the record say about viability, T/C for O=C(NO)c1cnc(N2CCN(S(=O)(=O)c3ccc4ccccc4c3)CC2)nc1 + Cc1cnc(CNC(=O)c2c(=O)c3ccc(N4CCCN(C)CC4)nc3n3c2sc2ccccc23)cn1 ?
Outgoing: 0.07

Incoming: Entry CC1COCCN1c1cc(C2(S(C)(=N)=O)CC2)nc(-c2ccnc3[nH]ccc23)n1 (configuration not stated) + Cc1[nH]c2ccc(F)cc2c1-c1nc2c3cccnc3c3ncccc3c2[nH]1 : reported viability, T/C = ?
Outgoing: 37.6

* * *

pIC50 values, listed per item
System: 616215-338-R-J1-PDC tumor spheroids, viability
assay: Anticancer human tumor 616215-338-R-J1-PDC cell line growth inhibition [GQUAD];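 further: spheroids exposed to agents for 7 days before readout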
conditions: curve of first compound; second compound 3.16 µM; spheroids with HUVEC and MSC
pIC50: −log10 of the molar value.

Worked examples follow.
INSERT INTO results (compound, result) VALUES
  ('CC(=O)O[C@H]1C(=O)[C@@]2(C)[C@H]([C@H](OC(=O)c3ccccc3)[C@]3(O)C[C@H](OC(=O)[C@H](O)[C@@H](NC(=O)c4ccccc4)c4ccccc4)C(C)=C1C3(C)C)[C@]1(OC(C)=O)CO[C@@H]1C[C@@H]2O + CN(C)c1ccc(Nc2c3ccc(NC(=O)CCN4CCCC4)cc3nc3cc(NC(=O)CCN4CCCC4)ccc23)cc1', '> 7.50'),
  ('Cc1[nH]c2ccccc2c1CCNCc1ccc(/C=C/C(=O)NO)cc1 + Cc1[nH]c2ccc(F)cc2c1-c1nc2c3cccnc3c3ncccc3c2[nH]1', 6.88),
  ('COc1ccc([C@@H](O)c2cc(-c3ncnc4cc(N5CCOCC5)ccc34)c(F)cc2Cl)nn1 + Cc1cnc(CNC(=O)c2c(=O)c3ccc(N4CCCN(C)CC4)nc3n3c2sc2ccccc23)cn1', '> 7.50'),
  ('CCc1c2c(nc3ccc(O)cc13)-c1cc3c(c(=O)n1C2)COC(=O)[C@]3(O)CC + CN(C)c1ccc(Nc2c3ccc(NC(=O)CCN4CCCC4)cc3nc3cc(NC(=O)CCN4CCCC4)ccc23)cc1', 7.95),
  ('CC(C)(O)C1CCC(Nc2ccc3ncc(-c4cccc(C(F)(F)F)c4)n3n2)CC1 (stereo not given) + Cc1cnc(CNC(=O)c2c(=O)c3ccc(N4CCCN(C)CC4)nc3n3c2sc2ccccc23)cn1', '> 7.50');

Incoming: Record C=CC(=O)N1CCN(c2nc(=O)n(-c3c(C)ccnc3C(C)C)c3nc(-c4c(O)cccc4F)c(F)cc23)C(C)C1 (stereo not given) + CN(C)c1ccc(Nc2c3ccc(NC(=O)CCN4CCCC4)cc3nc3cc(NC(=O)CCN4CCCC4)ccc23)cc1 : what is its pIC50 with 616215-338-R-J1-PDC tumor spheroids, viability?
Outgoing: < 5.00

Incoming: For 616215-338-R-J1-PDC tumor spheroids, viability, provide pIC50 of CC1COCCN1c1cc(-c2ccnn2C)c2ccnc(-c3ccn[nH]3)c2n1 (stereo not given) + Cc1cnc(CNC(=O)c2c(=O)c3ccc(N4CCCN(C)CC4)nc3n3c2sc2ccccc23)cn1 please.
Outgoing: > 7.50

Incoming: Identify the measured pIC50 of O=C(NO)c1cnc(N2CCN(S(=O)(=O)c3ccc4ccccc4c3)CC2)nc1 + CN(C)c1ccc(Nc2c3ccc(NC(=O)CCN4CCCC4)cc3nc3cc(NC(=O)CCN4CCCC4)ccc23)cc1 for 616215-338-R-J1-PDC tumor spheroids, viability.
Outgoing: 6.53

Incoming: Entry Cc1[nH]c2ccccc2c1CCNCc1ccc(/C=C/C(=O)NO)cc1 + Cc1cnc(CNC(=O)c2c(=O)c3ccc(N4CCCN(C)CC4)nc3n3c2sc2ccccc23)cn1 , system 616215-338-R-J1-PDC tumor spheroids, viability: what pIC50 was measured?
Outgoing: > 9.00

Incoming: Look up pIC50 with 616215-338-R-J1-PDC tumor spheroids, viability for this compound: O=c1[nH]cc(F)c(=O)[nH]1 + Cc1[nH]c2ccc(F)cc2c1-c1nc2c3cccnc3c3ncccc3c2[nH]1
Outgoing: 6.47

* * *

System: 616215-338-R-J1-PDC tumor spheroids, viability
assay: Anticancer human tumor 616215-338-R-J1-PDC cell line growth inhibition [GQUAD];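 further: spheroids exposed to agents for 7 days before readout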;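 on viability, T/C: percent viability relative to DMSO vehicle control wells taken as 100%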
conditions: second compound 0.1 µM; first compound 0.1 µM; stronger effect = lower value; spheroids with HUVEC and MSC
measurement name: viability, T/C (%)
State just the number; it will be interpreted in %.

Worked examples follow.
INSERT INTO assay_data (molecule, measurement_name, units_symbol, number) VALUES
  ('CC(C)n1c(=O)n(C)c2cnc3cc(F)c(-c4ccc(OCCCN5CCCCC5)nc4)cc3c21 + Cc1cnc(CNC(=O)c2c(=O)c3ccc(N4CCCN(C)CC4)nc3n3c2sc2ccccc23)cn1', 'viability, T/C', '%', 48.5),
  ('COc1ncnc(C2CC2)c1-c1ncc2cnn(Cc3ccc(-c4nc(C(F)(F)F)cn4C(C)C)cc3)c2n1 + Cc1[nH]c2ccc(F)cc2c1-c1nc2c3cccnc3c3ncccc3c2[nH]1', 'viability, T/C', '%', 93.7);

Now turn to the next molecule.
Incoming: What does the record list as viability, T/C for COc1ccc([C@@H](O)c2cc(-c3ncnc4cc(N5CCOCC5)ccc34)c(F)cc2Cl)nn1 + CN(C)c1ccc(Nc2c3ccc(NC(=O)CCN4CCCC4)cc3nc3cc(NC(=O)CCN4CCCC4)ccc23)cc1 ?
Outgoing: 94.6

* * *

System: 616215-338-R-J1-PDC tumor spheroids, viability
assay: Anticancer human tumor 616215-338-R-J1-PDC cell line growth inhibition [GQUAD];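 further: spheroids exposed to agents for 7 days before readout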;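 on viability, T/C: percent viability relative to DMSO vehicle control wells taken as 100%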
conditions: second compound 10 µM; first compound 0.0316 µM; stronger effect = lower value; spheroids with HUVEC and MSC
Measured viability, T/C, listed per entry for reference.
Numbers only here, please. The scale is %.

INSERT INTO measurements (compound, assay_system, measurement_name, number) VALUES
  ('COc1cccc2c1C(=O)c1c(O)c3c(c(O)c1C2=O)CC(O)(C(=O)CO)CC3OC1CC(N)C(O)C(C)O1 (configuration not stated) + Cc1cnc(CNC(=O)c2c(=O)c3ccc(N4CCCN(C)CC4)nc3n3c2sc2ccccc23)cn1', '616215-338-R-J1-PDC tumor spheroids, viability', 'viability, T/C', 28);

Incoming: Param item = CCc1c2c(nc3ccc(O)cc13)-c1cc3c(c(=O)n1C2)COC(=O)[C@]3(O)CC + CN(C)c1ccc(Nc2c3ccc(NC(=O)CCN4CCCC4)cc3nc3cc(NC(=O)CCN4CCCC4)ccc23)cc1 ; retrieve measured viability, T/C.
Outgoing: 25.9

Incoming: // lookup viability, T/C for C#Cc1c(F)ccc2cc(O)cc(-c3ncc4c(N5CC6CCC(C5)N6)nc(OCC56CCCN5CC(F)C6)nc4c3F)c12 (configuration not stated) + CN(C)c1ccc(Nc2c3ccc(NC(=O)CCN4CCCC4)cc3nc3cc(NC(=O)CCN4CCCC4)ccc23)cc1
Outgoing: 99.4

Data provenance is PubChem BioAssay AID2060493.
